# methodDescription: yeast display, Sf9 membrane polyspecificity reagent, FACS + sequencing; frameworks hold sequencing errors
experimentalReadout: polyreactivity (PSR sort gate)

orderedResidues	polyreactivity (PSR sort gate)
QVQLVESGGGLVQAGGSLRLSCAASGSTFGYYAMGWYRQAPGKERELVASITWGGGSTYYADSVKGRFTISRDNAKNTVYLQMNSLKPEDTAVYYCAATILGGTWGYGSYTYYYWGHGTQVTVSS	low polyreactivity
QVQLVESGGGLVQAGGSLRLSCAASGRTFDSYVMGWYRQAPGKERELVAAISSRGGTYYADSVKGRFTISRDNAKNTVYLQMNSLKPEDTAVYYCAARIYRKYYRYDYWGQGTQVTVSS	high polyreactivity
QVQLVESVGGLVQAGGSLRFSCAASGFIFNYNALGWYRQAPGTERELVAAISGTGVRTYYADSVKGRFTISRDNAKNTVYLQMNSLKPEDTAVYYCNAYYGYIPVSGYRNDYWGQGTQVTVSS	low polyreactivity
QVQLVESGGGLVQAGGSLRLSCDASGRTFWRYAMGWYRQAPGKERELVATISSGGSTNYADSVKGRFTISRDNAKNTVYLQMNSLKPEDTAVYYCNAEYSYYDLLAYDYWGQGTQVTVSS	low polyreactivity

Now let's try a different one.
Supply polyreactivity (PSR sort gate) value. Item: `QVQLVESGGGLVQAGGSLRLSCAASGRIIGRYAMGWYRPAPGKERELVAAISSSGSTYYADSVKGRFTISRDNAKNTVYLQMNSLKPEDTAVYYSAAYYRGRAYISYGYWGQGTQVTVSS` high polyreactivity
